# test_system: p53 Y220C (Homo sapiens, UniProt P04637, Y220C)
# protocol_details: Luciferase Reporter Assay (Luc), p53 response element, NClH1299 cells with inducible p53 Y220C
# Type: cell-based
# condition_info: AC50; luciferase reporter, NClH1299 inducible p53 Y220C, 6 hour; read-out: Luc P53 Y220C AC50
Listed molecules paired with reported AC50
measurement_name: AC50

>>> reported_result("CNC(=O)c1ccc(NCC#Cc2nc3c(N[C@H]4CCN(C)C4)cccn3c2SC(F)(F)F)c(OC)c1")
"1500 to 3000 nM"
>>> reported_result("COc1cc(P(C)(C)=O)ccc1NCC#Cc1cc2c(N[C@@H]3CCN(C)C[C@@H]3F)cccn2c1SC(F)(F)F")
"< 750 nM"
>>> reported_result("CNC(=O)c1ccc(OC[C@@H](C)O)c(NCC#Cc2cc3c(N[C@@H]4CCN(C)C[C@@H]4F)nccn3c2SC(F)(F)F)c1 (single isomer, unassigned)")
"< 750 nM"

###

# test_system: p53 Y220C mutant protein (amino acid residues 94-293) (Homo sapiens, UniProt P04637, Y220C)
# Construct: p53 Y220C mutant protein (amino acid residues 94-293)
# protocol_details: Thermal Shift Assay (TSA), dTM
# Assay type: binding
# condition_info: thermal shift, 100 uM compound; read-out: TSA P53 Y220C dTM (100 uM)
# Method: Thermal Shift Assay (TSA) Protocol 5 μM recombinant p53 Y220C mutant protein (amino acid residues 94-293) was incubated with 10 μM or 100 μM compound for 3 hours at 20 °C in buffer containing 20 mM HEPES, pH7.4, 100 mM NaCl, 0.01% Pluronic F-127, and 1% DMSO in the presence of 400-fold diluted Sypro Orange (ThermoFisher Scientific catalog number 4461146), on a 384-well PCR plate (Applied Biosystems catalog number 4483285). The volume was 5 μL/well. […]
measurement_name: ΔTm at 100 µM

>>> reported_result("CNC(=O)c1ccc(NCC#Cc2nc3c(N[C@@H]4CCN(C)C[C@@H]4F)cccn3c2CC(F)(F)F)c(Cl)c1")
"≥ 10 °C"
>>> reported_result("COc1cc2n[nH]cc2cc1NCC#Cc1nc2c(N[C@@H]3CCN(C)C[C@@H]3F)cccn2c1SC(F)(F)F")
"≥ 10 °C"
>>> reported_result("CNC(=O)c1ccc(OC)c(NCC#Cc2nc3c(N[C@@H]4CCN(C)C[C@@H]4F)cccn3c2SC(F)F)c1")
"≥ 10 °C"
>>> reported_result("CNC(=O)c1ccc(NCC#Cc2nc3c(N[C@H]4CCC(=O)N(C)C4)cccn3c2SC(F)(F)F)c(OC)c1")
"≥ 10 °C"
>>> reported_result("CN1CC[C@@H](Nc2cccn3c(CC(F)(F)F)c(C#C[C@H](O)c4ccccc4)nc23)[C@@H](F)C1")
"5 to 10 °C"
>>> reported_result("CNC(=O)c1cc(OC)c(NCC#Cc2nc3c(N[C@@H]4CCN(C)C[C@@H]4F)cccn3c2SC(F)(F)F)cc1Cl")
"≥ 10 °C"
>>> reported_result("CNC(=O)c1ccc(NCC#Cc2nc3c(N[C@@H]4CCN(C)C[C@@H]4F)cccn3c2CC(F)(F)F)cc1")
"5 to 10 °C"

###

# test_system: p53 Y220C mutant protein (amino acid residues 94-293) (Homo sapiens, UniProt P04637, Y220C)
# Construct: p53 Y220C mutant protein (amino acid residues 94-293)
# protocol_details: Thermal Shift Assay (TSA), dTM
# Assay type: binding
# condition_info: thermal shift, 100 uM compound; read-out: TSA P53 Y220C dTM (100 uM)
Where a name gives a salt, the structure may show the parent alone.
Listed compounds paired with reported ΔTm at 100 µM
measurement_name: ΔTm at 100 µM

>>> reported_result("CNC(=O)c1ccc(NCC#Cc2nc3c(N[C@@H]4CN(C)C[C@@H]4F)cccn3c2SC(F)(F)F)c(OC)c1")
"≥ 10 °C"
>>> reported_result("COc1cc(C(=O)N(C)C)ccc1NCC#Cc1nc2c(N[C@@H]3CCN(C)C[C@@H]3F)cccn2c1CC(F)(F)F")
"≥ 10 °C"
>>> reported_result("CNC(=O)c1ccc(OC)c(NCC#Cc2nc3c(N[C@@H]4C[C@H]5CC[C@@H]([C@@H]4F)N5C)cccn3c2SC(F)(F)F)c1")
"≥ 10 °C"
>>> reported_result("CNC(=O)c1ccc(OC)c(NCC#Cc2nn3c(N[C@@H]4CCNC[C@@H]4F)cccc3c2SC(F)F)c1")
"≥ 10 °C"
>>> reported_result("CCS(=O)(=O)c1ccc(NCC#Cc2nc3c(N[C@@H]4CCN(C)C[C@@H]4F)cccn3c2CC(F)(F)F)c(OC)c1")
"≥ 10 °C"
>>> reported_result("COC(=O)N1CCC(Nc2cccn3c(CC(F)(F)F)c(C#CCNc4ccc(S(C)(=O)=O)cc4OC)nc23)CC1")
"5 to 10 °C"
>>> reported_result("CN1CC[C@@H](Nc2cccn3c(CC(F)(F)F)c(C#C[C@@H](O)c4ccccc4)nc23)[C@@H](F)C1")
"1 to 5 °C"
>>> reported_result("C=C(C)C(=O)Nc1cc(NC2CCN(C)CC2)c2nc(C#CCNc3ccc(C(=O)NC)cc3OC)c(CC(F)(F)F)n2c1 [Example 13, formic acid salt]")
"1 to 5 °C"
>>> reported_result("CNC(=O)c1ccc(NCC#Cc2nc3c(N[C@H]4CCNC(=O)C4)cccn3c2SC(F)(F)F)c(OC)c1")
"≥ 10 °C"
>>> reported_result("CCNC(=O)c1ccc(OC)c(NCC#Cc2nc3c(N[C@@H]4CCN(C)C[C@@H]4F)cccn3c2SC(F)(F)F)c1")
"≥ 10 °C"
>>> reported_result("CNC(=O)c1cnc(NCC#Cc2nc3c(N[C@@H]4CCN(C)C[C@@H]4F)cccn3c2SC(F)(F)F)c(OC)c1")
"≥ 10 °C"
>>> reported_result("COc1cc(S(N)(=O)=O)ccc1NCC#Cc1nc2c(N[C@@H]3CCN(C)C[C@@H]3F)cccn2c1CC(F)(F)F")
"≥ 10 °C"
>>> reported_result("CNC(=O)c1ccc(NCC#Cc2nc3c(N[C@@H]4CCNC[C@@H]4F)cccn3c2SC(F)(F)F)c(OC)c1")
"≥ 10 °C"
>>> reported_result("COc1cc(C(=O)NC2CC2)ccc1NCC#Cc1nc2c(N[C@@H]3CCN(C)C[C@@H]3F)cccn2c1CC(F)(F)F")
"≥ 10 °C"
>>> reported_result("CNC(=O)c1ccc(NCC#Cc2nc3c(NC4CCN(C)CC4)cc(NC(=O)C(F)Cl)cn3c2CC(F)(F)F)c(OC)c1 (stereo not shown) [Example 43, formic acid salt]")
"1 to 5 °C"
>>> reported_result("CN1CC[C@@H](Nc2cccn3c(CC(F)(F)F)c(C#CCCN)nc23)[C@@H](F)C1")
"5 to 10 °C"
>>> reported_result("CCc1c(C#CCNc2ccc(S(C)(=O)=O)cc2OC)nc2c(NC3CCN(C)CC3)cccn12")
"5 to 10 °C"
>>> reported_result("COc1cc(S(C)(=O)=O)ccc1NCC#Cc1nc2c(N[C@H]3CCN(C)C[C@H]3F)cccn2c1CC(F)(F)F")
"≥ 10 °C"
>>> reported_result("COc1cc(S(C)(=O)=O)ccc1NCC#Cc1nc2c(N[C@@H]3CCN(C)C[C@@H]3F)cccn2c1SC(F)(F)F")
"≥ 10 °C"
>>> reported_result("COCCN1CCC(Nc2cccn3c(CC(F)(F)F)c(C#CCNc4ccc(S(C)(=O)=O)cc4OC)nc23)CC1")
"≥ 10 °C"
>>> reported_result("COc1cc(S(C)(=O)=O)ccc1NCC#Cc1nc2c(NC3CCN(C)CC3)cccn2c1CC(F)(F)F")
"≥ 10 °C"
>>> reported_result("CNC(=O)c1ccc(NCC#Cc2nn3c(N[C@@H]4CCN(C)C[C@@H]4F)cccc3c2CC(F)(F)F)c(OC)c1")
"5 to 10 °C"
>>> reported_result("CNC(=O)c1ccc(OC)c(NCC#Cc2nc3c(N[C@@H]4CN(C)C[C@@H]4F)cccn3c2SC(F)(F)F)c1")
"≥ 10 °C"
>>> reported_result("CNC(=O)c1ccc(NCC#Cc2nc3c(N[C@@H]4CCN(C)C[C@@H]4F)cccn3c2CC(F)(F)F)c(OC)n1")
"5 to 10 °C"
>>> reported_result("CNC(=O)c1ccc(NCC#Cc2nc3c(NCC4(F)CN(C)C4)cccn3c2SC(F)(F)F)c(OC)c1")
"5 to 10 °C"
>>> reported_result("COc1cc(S(C)(=O)=O)ccc1NCC#Cc1nc2c(N[C@@H]3CCNC[C@@H]3F)cccn2c1SC(F)(F)F")
"≥ 10 °C"
>>> reported_result("CNC(=O)c1ccc(OC)c(NCC#Cc2nc3c(N[C@@H]4CCN(C)C[C@@H]4F)cc(F)cn3c2SC(F)(F)F)c1")
"≥ 10 °C"
>>> reported_result("C[C@H](O)C#Cc1nc2c(N[C@@H]3CCN(C)C[C@@H]3F)cccn2c1CC(F)(F)F")
"5 to 10 °C"

Where these numbers come from: patent US20260374766A1
